# credit: PubChem BioAssay

assay: PSAC antagonists in infected red cells, primary screen, cell-based, P. falciparum Indochina, OD700, 18 h (AID 1157); conditions: P. falciparum Indochina infected erythrocytes, osmotic lysis OD700, 18 h; higher = more signal, called active from +8 up or from −8 down
Active and inactive are the calls of the source.
recorded.endpoint: z-score

compound: CC(C)(C)N1CC=CC23O[C@@H]4C=CCCOC(=O)C4[C@H]2C(=O)N(CCCCCO)[C@@H]3C1=O (stereo partly drawn)
meas.value: 0.159 (inactive)
//
compound: CCOC(=O)NN=C1C[C@@H](O)[C@@H](O)[C@@H]2[C@@H]3C(=O)N(C4CCCCC4)C(=O)[C@@H]3CC[C@H]12
meas.value: 0.574 (inactive)
//
compound: COC(=O)[C@H](C)NC(=O)CCC1CC(OC(=O)NCCc2ccc(F)cc2)CC2(CCCC(COC(=O)NCCc3ccc(Cl)cc3)O2)O1 (stereo partly drawn)
meas.value: 0.2 (inactive)
//
compound: COc1cccc([C@H]2Oc3ccc(OC)cc3C(=NOC(C)CN3CCCc4nc(C)c(C)cc43)[C@@H]2O)c1 (stereo partly drawn)
meas.value: 0.465 (inactive)
//
compound: COC(=O)[C@@]1(Cc2ccc(OC)cc2)[C@H]2c3cc(C(=O)N4CCCC4)n(Cc4cc(F)c(F)c(F)c4)c3C[C@H]2CN1C(=O)c1ccccc1
meas.value: 0.911 (inactive)
//
compound: CCOC(=O)C1=CCC(c2cc3ccccc3[nH]2)NC1 (stereo not drawn)
meas.value: 0.829 (inactive)
//
compound: CCN1C(=O)[C@H]2[C@H]3[C@H](O)[C@H](O)CC(=NOCc4ccccc4)[C@H]3CC[C@H]2C1=O
meas.value: 0.0113 (inactive)

// below: z-score requested for another compound
Lookup: Item CCCCC(=C=CC[C@H](O)c1ccccc1OCCO)C[C@H](O)COCc1ccccc1 has what recorded z-score?
Found: 0.921 (inactive)

* * *

assay: E. coli growth modulation, two-sided OD650, primary screen, E. coli filamentation project, strain DRC41, 24 h (AID 1093); settings: OD650, 24 h, higher = more signal, called active from +8 up or from −8 down;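 also: MC1000 strain lacking acrAB efflux and sulA so SOS filamentation is blocked; test concentration not given here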
recorded.endpoint: z-score
The answer should be written as a number, with no unit following it.

molecule: CCCCCN1CC=CC23O[C@@H]4C=CCOC(=O)[C@@H]4[C@H]2C(=O)N(C(CO)C(C)C)[C@@H]3C1=O (some centres undefined)
recorded.endpoint: z-score
meas.value: 0.869

molecule: CCN1C(=O)[C@H]2[C@H]3[C@H](O)[C@H](O)CC(=NOC[C@@H](C)[C@H](OCc4ccccc4)C(C)C)[C@@H]3CC[C@H]2C1=O
recorded.endpoint: z-score
meas.value: 0.568

molecule: CC(=O)OC[C@H]1O[C@@H](ON=C(C)CCN2CCc3nc(-c4ccccc4)c(-c4ccccc4)cc3C2)[C@H](OC(C)=O)[C@@H](OC(C)=O)[C@@H]1OC(C)=O
recorded.endpoint: z-score
meas.value: -0.395

molecule: CC(C)(C)OC(=O)CC[C@]1(C(N)=O)COC(c2ccc(OCCCO)cc2)=N1
recorded.endpoint: z-score
meas.value: 0.308

molecule: C=CC[C@@H]1C=C[C@H](ON=C(C)CCN2CCc3nc(CC)c(CC)cc3C2)[C@@H](CO)O1
recorded.endpoint: z-score
meas.value: 0.544

Lookup: Item CCN1C(=O)[C@H]2[C@H]3[C@H](O)[C@H](O)CC(=NO[C@@H]4O[C@H](CO)[C@@H](O)[C@H](O)[C@H]4O)[C@@H]3CC[C@H]2C1=O has what recorded z-score?
Found: 0.103

Lookup: Entry CC(=O)OC[C@H]1O[C@@H](ON=C[C@@H](C)[C@H](OCc2ccccc2)C(C)C)[C@H](OC(C)=O)[C@@H](OC(C)=O)[C@@H]1OC(C)=O please
Found: -0.057

Lookup: Entry [N-]=[N+]=NCc1ccccc1[C@@H]1OC(c2ccc(OCCCO)cc2)=N[C@]1(Cc1ccccc1)C(=O)N1CCOCC1 please
Found: 0.986

Lookup: Entry CCOC(=O)C[C@H]1[C@H](OC(=O)c2cc3ccccc3oc2=O)[C@@H](NC(=O)c2ccc3ccccc3n2)c2cc(OCCCO)ccc2N1C(=O)c1ccccc1 please
Found: 0.471

Lookup: Entry C[C@@H]1C=CCC(=O)OC[C@H](C)C(=O)N2CCC[C@H]2C(=O)OC1 please
Found: 0.325

* * *

assay: fission yeast growth modulation, primary screen, strain 972, OD600, 24 h, no modulator (AID 1090);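 also: basal condition with compound alone and no growth modifier present; test concentration not given here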; settings: S. pombe 972 growth, higher = more signal, called active from +8 up or from −8 down
Entries and their z-score
The answer should be written as a number, with no unit following it.

Completed entries (count: 3):
compound: CCOC(=O)C1=CCC(c2cc3ccccc3[nH]2)NC1 (centres undefined)
recorded.endpoint: z-score
meas.value: -2.39
--
compound: [N-]=[N+]=NCc1ccccc1C[C@]1(C(=O)NCc2ccccc2)N=C(c2ccc(OCCCO)cc2)O[C@H]1c1ccccc1N=[N+]=[N-]
recorded.endpoint: z-score
meas.value: 1
--
compound: CCCNC(=O)[C@@H]1c2ccccc2C(=O)N(Cc2ccccc2Cl)[C@H]1c1ccc(CO)cc1
recorded.endpoint: z-score
meas.value: -0.64

// below: z-score requested for another compound
Lookup: Item O=C1O[C@@H](c2ccccc2)[C@@H](c2ccccc2)N2[C@@H](c3ccc(O)cc3)[C@]3(C(=O)Nc4ccccc43)[C@@H](C(=O)O)[C@H]12 has what recorded z-score?
Found: -0.253

* * *

assay: HepG2 liver cancer cell viability effects, profiling panel, resazurin fluorescence, 24 h, PK04 Diversity Set (AID 1172); conditions: higher = more signal; also: test concentration not given here
recorded.endpoint: z-score

compound: C[C@@H](c1ccccc1)N1C(=O)[C@H]2[C@H]3[C@H](O)C=CC(=O)[C@@H]3CC[C@H]2C1=O
z-score: -0.0507

Lookup: Item CN1C(=O)C2C(C1=O)C1C=C(CCCO)C2C(c2ccc(CN3CCCC3)cc2)N1C (stereo not given) has what recorded z-score?
Found: -1.03

Lookup: Entry COC(=O)[C@H](C)NC(=O)CCC1CC(OC(=O)NCCc2ccc(F)cc2)CC2(CCCC(COC(=O)NCCc3ccc(Cl)cc3)O2)O1 (stereo not given in full) please
Found: 0.315

Lookup: Entry CC(C)CON=C1C[C@@H](O)[C@@H](O)[C@@H]2[C@@H]3C(=O)N(C[C@@H]4CCCO4)C(=O)[C@@H]3CC[C@H]12 please
Found: 0.511

Lookup: Entry CCc1cccc(NC(=O)O[C@H]2[C@H](OC(=O)Nc3ccc4c(c3)OCO4)[C@@H](OC(=O)Nc3ccc4c(c3)OCO4)[C@@H](OC)O[C@@H]2CO)c1 please
Found: 1

Lookup: Entry CCCCc1nc2c(c3c1C[C@H](C)OC3)CN(CCC(C)C)CC2 please
Found: -0.165

Lookup: Entry N#Cc1ccc(NN2C(C(O)c3cc(C(F)(F)F)cc(C(F)(F)F)c3)C=CC3C(=O)N(c4ccccc4)C(=O)C32)cc1 (stereo not given) please
Found: -1.75

Lookup: Entry COc1ccc([Si](C)(C)[C@@H]2[C@@H](CC(=O)N3CCC[C@H]3CO)O[C@]3(C(=O)N(Cc4cccc(N5CCC5=O)c4)c4ccccc43)[C@H]2C)cc1 please
Found: -1.1

* * *

target: Torsin-1A-interacting protein 1 (Homo sapiens) (UniProt Q5JTV8); test: LAP1 binders from COS7 cell lysate, primary screen, small-molecule microarray, 635/667 nm fluorescence (AID 1116); conditions: COS7-hLAP1 lysate binding, 635 nm fluorescence, higher = more signal
Sequence (Q5JTV8 whole entry, looked up): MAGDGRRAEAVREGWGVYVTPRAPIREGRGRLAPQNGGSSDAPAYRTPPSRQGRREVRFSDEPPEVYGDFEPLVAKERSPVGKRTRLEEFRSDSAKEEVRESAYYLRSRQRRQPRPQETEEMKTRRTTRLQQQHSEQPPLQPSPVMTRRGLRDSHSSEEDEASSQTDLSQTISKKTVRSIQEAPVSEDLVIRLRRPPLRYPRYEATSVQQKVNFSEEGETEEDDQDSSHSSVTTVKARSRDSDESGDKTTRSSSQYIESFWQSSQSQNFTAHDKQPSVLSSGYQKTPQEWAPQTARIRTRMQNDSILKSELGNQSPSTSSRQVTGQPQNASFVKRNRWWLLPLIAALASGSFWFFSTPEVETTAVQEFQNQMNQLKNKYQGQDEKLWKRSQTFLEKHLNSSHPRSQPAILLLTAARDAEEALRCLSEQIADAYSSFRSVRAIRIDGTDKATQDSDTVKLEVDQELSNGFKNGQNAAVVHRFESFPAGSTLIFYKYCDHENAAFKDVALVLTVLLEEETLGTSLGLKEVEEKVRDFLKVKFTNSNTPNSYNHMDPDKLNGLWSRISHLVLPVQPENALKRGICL
Assign class by composite z-score: not lower than 0.6 means 1; lower than 0.6 means -1.

Solved cases (3 shown):
molecule: COc1ccc(O[C@H]2C=C[C@@H](c3ccccc3)O[C@@H]2COC(=O)CCC(C)=NOC[C@@H](C)[C@H](OCc2ccccc2)C(C)C)cc1
assigned.label: -1
--
molecule: CC1CC/C=C\[C@H]2OC34C=CCN(C(C)C)C(=O)[C@H]3N(CCCO)C(=O)[C@@H]4C2C(=O)O1 (stereo not given in full)
assigned.label: 1
--
molecule: COCCOC(=O)N1C(=O)[C@@]2(c3ccccc31)[C@H](C(N)=O)[C@H]1C(=O)O[C@H](c3ccccc3)[C@H](c3ccccc3)N1[C@@H]2c1ccccc1OCCO
assigned.label: 1

Lookup: Does composite z-score meet or surpass 0.6 for COC(=O)C1=CCC(c2cccc(Cl)c2)O1 (stereo not given) ?
Found: -1

Lookup: Entry COc1ccc(O[C@H]2C=C[C@@H](c3ccccc3)O[C@@H]2COC(=O)CCC(C)=NOC(C)CN2CCCCc3nc(C)c(C)cc32)cc1 (stereo not given in full) please
Found: -1

Lookup: Entry O=C(NN=C1C[C@@H](O)[C@@H](O)[C@@H]2[C@@H]3C(=O)N(c4ccc(F)cc4F)C(=O)[C@@H]3CC[C@@H]12)OCc1ccccc1 please
Found: -1

Lookup: Entry C[C@@H](c1ccccc1)N1C(=O)[C@H]2[C@H]3[C@H](O)C=CC(=O)[C@@H]3CC[C@H]2C1=O please
Found: -1

Lookup: Entry COC(=O)[C@@]1(Cc2ccc(F)cc2)[C@@H]2C(=CC(=O)[C@H]2CC(=O)C(=O)N(C)C)CN1C(=O)c1ccccc1 please
Found: 1

Lookup: Entry CC(=O)OC[C@H]1O[C@@H](ON=C[C@@H](C)[C@H](OCc2ccccc2)C(C)C)[C@H](OC(C)=O)[C@@H](OC(C)=O)[C@@H]1OC(C)=O please
Found: -1

Lookup: Entry COC(=O)[C@@H]1CC[C@H](C)[C@@H](c2ccc(C)cc2)N1C(=O)c1ccc(C=NOC(C)CN2CCCCc3nc(C)c(C)cc32)cc1 (stereo not given in full) please
Found: 1

Lookup: Entry [N-]=[N+]=Nc1ccccc1C[C@@]1(C(N)=O)N=C(c2ccc(OCCCO)cc2)O[C@@H]1c1ccccc1 please
Found: 1

Lookup: Entry CCOC(=O)CCN1C(=O)[C@H]2[C@H]3[C@H](O)[C@H](O)CC(=NOC[C@@H](O)COCc4ccco4)[C@@H]3CC[C@H]2C1=O please
Found: 1

Lookup: Entry COc1ccccc1CN1C(=O)c2ccccc2[C@@H](C(=O)NCC(F)(F)F)[C@@H]1c1ccc(CO)cc1 please
Found: -1

Lookup: Entry O=C(CS)NCCCCCNC(=O)[C@@H]1C[C@@H]2C(=O)N[C@@H](Cc3ccccc3)C(=O)N2[C@@H]1c1ccc(O)cc1 please
Found: 1

Lookup: Entry COC(=O)[C@@]1(Cc2ccccc2)[C@H]2c3cc(C(=O)N4CCCC4)n(Cc4ccccn4)c3C[C@H]2CN1C(=O)c1ccccc1 please
Found: 1
